// values below are reported z-score
PROTOCOL DESCRIPTION: qHTS for identification of novel therapeutic agents for treatment of microphthalmiaassociated transcription factor (MiT) renal cell carcinoma (RCC) (AID 1963991);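 also: curves scaled with 100% = DMSO viability and 0% = empty wells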
RECORDED CONDITIONS: TFE3-RCC viability, CellTiter-Glo, 48 h; measured here: UOK124 Z-AUC; stronger effect = lower value
Records with an inconclusive call do not appear.
I only need the number, thanks.

CC(C)C[C@H](NC(=O)[C@@H](NC(=O)c1cccc(-c2ccccc2)n1)[C@@H](C)O)B(O)O = -3.68

What measured z-score goes with C[C@]12C=CC(=O)N[C@@H]1CC[C@H]1[C@H]3CC[C@@H](C(=O)Nc4cc(C(F)(F)F)ccc4C(F)(F)F)[C@@]3(C)CC[C@@H]12 ?
0.86

What do you have for CN1[C@H]2CC(OC(=O)[C@@H](CO)c3ccccc3)C[C@H]1[C@H]1O[C@H]12 (some centres not stated) ?
0.895

What do you have for N#CNC(=NCCCCCCOc1ccc(Cl)cc1)Nc1ccncc1 ?
-2.82

What do you have for CS[C@H]1SC[C@@H]2C(=O)N(C)[C@H](C(C)C)C(=O)OC[C@H](NC(=O)c3cnc4ccccc4n3)C(=O)N[C@H](C)C(=O)N(C)[C@@H]1C(=O)N(C)[C@H](C(C)C)C(=O)OC[C@H](NC(=O)c1cnc3ccccc3n1)C(=O)N[C@H](C)C(=O)N2C ?
-3.01

What do you have for CC(C(C)N1CC(=O)NC(=O)C1)N1CC(=O)NC(=O)C1 (configuration not stated) ?
-1.76

What do you have for COc1cccc2c1C(=O)c1c(O)c3c(c(O)c1C2=O)C[C@@](O)(C(C)=O)C[C@H]3O[C@H]1C[C@H](N)[C@H](O)[C@H](C)O1 ?
-2.33

====

PROTOCOL DESCRIPTION: Quantitative High-Throughput drug screen in 47 multiple myeloma cell lines against the NCATS MIPE library collection: KMS34_JCRB cell viability assay (AID 1918985); also: nearly all actives have a fitted effect of over 40% in size
RECORDED CONDITIONS: KMS34 myeloma viability, CellTiter-Glo ATP luminescence, 48 h; series mostly up to 45.8 µM
Results filed as inconclusive are left out. The source made the active and inactive calls. Calls come from the whole dose curve; as a rule, active = well fitted cell-killing curve with a large enough effect; inconclusive = small, poorly fitted or top-dose-only effect, or effect the other way; inactive = no such curve, though single readings can be large or run the other way.
Returns: one label drawn from active, inactive

CCC(C=C[C@@H]1OC(=O)C=C[C@H]1C)=C[C@H](C)CC=CC(C)=C[C@@H](C)C(=O)[C@@H](C)[C@H](O)[C@@H](C)CC(C)=CC(=O)O = active
Cn1cc(-c2ccc3ncc(Cc4ccc5ncccc5c4)n3n2)cn1 = inactive
C=C1C[C@@]2(O)O[C@@]3(C[C@H]2C(C)C)[C@H](C)CC[C@H]13 = inactive
CC(C)C[C@H](NC(=O)[C@@H](NC(=O)c1cccc(-c2ccccc2)n1)[C@@H](C)O)B(O)O = active
CC(=O)N[C@H]1[C@@H]([C@H](O)[C@H](O)CO)OC(C(=O)O)=C[C@@H]1N=C(N)N = inactive
COC1=C2C[C@@H](C)C[C@H](OC)[C@@H](O)[C@@H](C)C=C(C)[C@H](OC(N)=O)[C@@H](OC)C=CC=C(C)C(=O)NC(=CC1=O)C2=O = active
CC(=O)[C@]1(O)Cc2c(O)c3c(c(O)c2[C@@H](O[C@H]2C[C@H](N)[C@@H](O)[C@H](C)O2)C1)C(=O)c1ccccc1C3=O = active
O=C(O)C=Cc1ccc(Cn2ccnc2)cc1 = inactive
CN(C)c1ccc2cc(C(=O)N[C@@H](CCCN=C(N)CCl)C(=O)NCc3ccccc3)ccc2c1 = active
Nc1ccc(C(=O)Nc2cccc(-c3nc(N4CCOCC4)c4oc5ncccc5c4n3)c2)cn1 = active

Continue with the next molecule.
What classification did COc1ccc(S(=O)(=O)Nc2cccnc2Nc2ccc(O)cc2)cc1 end up with in this test?
active

These measurements were taken from PubChem BioAssay (NCATS).
